Source listed as patent US20250243180A1.

# study_target: NEK7 (Homo sapiens (Human), UniProt Q8TDX7+Q96SW2)
# Sequence (Q8TDX7 whole entry): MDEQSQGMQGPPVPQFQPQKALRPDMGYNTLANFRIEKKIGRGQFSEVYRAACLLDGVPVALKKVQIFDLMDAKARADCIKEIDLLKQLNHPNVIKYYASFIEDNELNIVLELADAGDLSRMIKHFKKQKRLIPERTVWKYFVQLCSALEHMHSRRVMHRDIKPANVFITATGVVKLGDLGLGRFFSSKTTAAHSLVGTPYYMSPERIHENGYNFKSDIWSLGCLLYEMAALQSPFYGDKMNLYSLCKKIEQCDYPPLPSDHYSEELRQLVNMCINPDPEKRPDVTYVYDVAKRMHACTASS
# Sequence (Q96SW2 whole entry): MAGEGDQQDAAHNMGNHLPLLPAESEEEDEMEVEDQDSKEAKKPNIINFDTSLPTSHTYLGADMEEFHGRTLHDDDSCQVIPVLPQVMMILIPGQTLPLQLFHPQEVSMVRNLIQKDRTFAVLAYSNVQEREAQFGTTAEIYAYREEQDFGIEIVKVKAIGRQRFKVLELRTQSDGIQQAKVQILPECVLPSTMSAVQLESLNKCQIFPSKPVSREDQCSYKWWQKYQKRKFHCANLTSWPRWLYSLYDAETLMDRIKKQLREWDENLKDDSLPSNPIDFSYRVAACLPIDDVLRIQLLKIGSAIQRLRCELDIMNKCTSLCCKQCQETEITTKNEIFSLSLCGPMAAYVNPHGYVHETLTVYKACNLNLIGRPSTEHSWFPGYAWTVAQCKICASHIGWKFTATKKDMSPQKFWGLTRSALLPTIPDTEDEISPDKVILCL
# Sequence (Q16531 2-1140 partner): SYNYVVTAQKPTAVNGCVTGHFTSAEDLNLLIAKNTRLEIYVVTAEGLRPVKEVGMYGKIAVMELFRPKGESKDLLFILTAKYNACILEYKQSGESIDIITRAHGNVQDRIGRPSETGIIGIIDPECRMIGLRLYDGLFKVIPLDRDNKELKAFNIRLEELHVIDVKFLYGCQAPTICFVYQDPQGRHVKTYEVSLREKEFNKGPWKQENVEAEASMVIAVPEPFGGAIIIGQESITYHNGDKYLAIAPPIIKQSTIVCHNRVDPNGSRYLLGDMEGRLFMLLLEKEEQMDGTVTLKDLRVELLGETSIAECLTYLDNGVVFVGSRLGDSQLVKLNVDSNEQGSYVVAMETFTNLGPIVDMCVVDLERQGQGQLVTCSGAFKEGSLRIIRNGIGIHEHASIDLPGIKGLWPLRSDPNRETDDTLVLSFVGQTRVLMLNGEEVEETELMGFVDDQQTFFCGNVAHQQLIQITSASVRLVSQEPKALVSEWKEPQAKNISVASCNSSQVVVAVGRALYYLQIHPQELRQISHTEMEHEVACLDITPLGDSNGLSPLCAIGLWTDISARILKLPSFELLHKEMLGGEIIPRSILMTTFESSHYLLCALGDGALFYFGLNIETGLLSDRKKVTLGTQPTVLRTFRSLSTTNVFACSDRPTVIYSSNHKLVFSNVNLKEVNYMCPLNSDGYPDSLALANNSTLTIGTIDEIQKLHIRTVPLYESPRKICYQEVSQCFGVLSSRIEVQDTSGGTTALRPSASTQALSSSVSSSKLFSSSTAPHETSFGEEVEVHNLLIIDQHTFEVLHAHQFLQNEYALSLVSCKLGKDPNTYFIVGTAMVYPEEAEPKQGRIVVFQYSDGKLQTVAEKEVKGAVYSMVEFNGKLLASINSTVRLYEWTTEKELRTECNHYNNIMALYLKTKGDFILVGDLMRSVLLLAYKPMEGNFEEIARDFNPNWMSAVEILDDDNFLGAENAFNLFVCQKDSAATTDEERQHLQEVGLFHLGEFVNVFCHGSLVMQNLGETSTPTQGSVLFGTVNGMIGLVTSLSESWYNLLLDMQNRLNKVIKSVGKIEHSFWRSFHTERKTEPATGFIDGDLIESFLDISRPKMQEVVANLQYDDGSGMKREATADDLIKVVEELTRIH
# measurement_description: NEK7 NanoBiT degradation assay in Cal51 NEK7 NanoBiT cell line
# Type: cell-based
# particulars: Cal51 NEK7 NanoBiT cells, 24 hours; read-out: NEK7 NanoBiT DC50
quantity_measured: DC50 (nM)

a: CC(C)(C(=O)NCc1ccc(C2CCC(=O)NC2=O)c(Cl)c1)c1cccc(C(F)(F)F)n1 (stereo not drawn)
b: CC(C)(C(=O)NCc1cc(Cl)c(C2CCC(=O)NC2=O)c(Cl)c1)c1cnc(C2CC2)cn1 (stereo not drawn)
c: CC(C)(C(=O)NCc1cc(Cl)c(C2CCC(=O)NC2=O)c(Cl)c1)c1ccc2occc2c1 (stereo not drawn)
Prompt: Lab note: arrange the 3 compounds above from lowest to highest DC50. Labels, ranked as asked.
Completion: c, b, a

a: CC(C)(C(=O)NCc1cc(Cl)c(C2CCC(=O)NC2=O)c(Cl)c1)c1cscn1 (stereo not drawn)
b: COc1ccc(C(C)(C)C(=O)NCc2cc(F)c(C3CCC(=O)NC3=O)c(Cl)c2)nc1 (stereo not drawn)
c: Cc1ccc(C(C)(C)C(=O)NCc2cc(Cl)c(C3CCC(=O)NC3=O)c(Cl)c2)cn1 (stereo not drawn)
d: CC(C)(C(=O)NCc1cc(Cl)c(C2CCC(=O)NC2=O)c(Cl)c1)c1ncc(CO)cn1 (stereo not drawn)
Prompt: Please order the records by their reported DC50, lowest number first. Please respond by ranking the labels in the order requested.
Completion: c, b, d, a
(c: 1 nM, b: 12 nM, d: 23 nM, a: 151 nM)

a: CC(C)(C(=O)NCc1ccc(C2CCC(=O)NC2=O)c(Cl)c1)c1ccc(C#N)cc1 (stereo not drawn)
b: CC(C)(C(=O)NCc1cc(Cl)c(C2CCC(=O)NC2=O)c(Cl)c1)c1nccc(C2CC2)n1 (stereo not drawn)
c: CC(C)(C(=O)NCc1cc(Cl)c([C@@H]2CCC(=O)NC2=O)c(Cl)c1)c1ncccn1 (single isomer, unassigned)
d: Cc1cnc(C(C)(C)C(=O)NCc2cc(Cl)c([C@]3(F)CCC(=O)NC3=O)c(Cl)c2)nc1 (single isomer, unassigned)
Prompt: # rank by DC50, ascending (min first) List the labels, following the order given in the request.
Completion: a, b, c, d

###

# measurement_description: Plasma pharmacokinetics in NHP, 30 mg/kg oral for 7 days
# Assay type: in vivo
# particulars: both sexes, monkey, oral 30 mg/kg daily for 7 days, average male and female
# Procedure: Naïve NHP were orally administered with 7 consecutive daily dose of Compound 14 at 30 mg/kg, n=4 per dose group, 2 male and 2 female. […] Plasma collected posted dose on Day 1 and Day 7 were analyzed using a non GLP LC/MS/MS bioanalytical method to evaluate the compound concentration. […] Samples were probed for NEK7 and β-actin protein levels by JESS, and quantified relative to vehicle control. […]
quantity_measured: Tmax (h)
Form entry: value (h) — number only.

Prompt: Annotate the compound Cc1cnc(C(C)(C)C(=O)NCc2cc(Cl)c(C3CCC(=O)NC3=O)c(Cl)c2)nc1 (stereo not shown) with its measured Tmax.
Completion: 1.75

###

# study_target: NEK7 (Homo sapiens (Human), UniProt Q8TDX7+Q96SW2)
# measurement_description: NEK7 NanoBiT degradation assay in Cal51 NEK7 NanoBiT cell line
# Assay type: cell-based
# particulars: CAL-51; Cal51 NEK7 NanoBiT cells, 24 hours; read-out: NEK7 NanoBiT Dmax
Where a name gives a salt, the structure may show the parent alone.
quantity_measured: Dmax (%)

>>> df
                                   molecule  quantity_measured  result_units  result_value
0  Cc1cnc(C(C)(C)C(=O)NCc2cc(Cl)c([C@@H]3CCC(=O)NC3=O)c(Cl)c2)nc1 (single isomer, unassigned) [Compound 154]               Dmax             %            89
1  CN1CCC(C(=O)NCc2cc(Cl)c(C3CCC(=O)NC3=O)c(Cl)c2)(c2ccc(F)cc2)CC1 (stereo not shown) [Compound 135, formate]               Dmax             %            71
2  CC(C)(C(=O)NCc1cc(Cl)c(C2CCC(=O)NC2=O)c(Cl)c1)c1ccc(OC(F)F)nn1 (stereo not shown) [Compound 210]               Dmax             %            96
3  CC(C)(C(=O)NCc1cc(Cl)c(C2CCC(=O)NC2=O)c(Cl)c1)c1ccc(OC(F)(F)F)nn1 (stereo not shown) [Compound 223]               Dmax             %            91

###

# study_target: CRBN-DDB1 (Homo sapiens (Human), UniProt Q96SW2)
# Sequence (Q96SW2 whole entry): as the sequence (Q96SW2 whole entry) above
# Sequence (Q16531 whole entry partner): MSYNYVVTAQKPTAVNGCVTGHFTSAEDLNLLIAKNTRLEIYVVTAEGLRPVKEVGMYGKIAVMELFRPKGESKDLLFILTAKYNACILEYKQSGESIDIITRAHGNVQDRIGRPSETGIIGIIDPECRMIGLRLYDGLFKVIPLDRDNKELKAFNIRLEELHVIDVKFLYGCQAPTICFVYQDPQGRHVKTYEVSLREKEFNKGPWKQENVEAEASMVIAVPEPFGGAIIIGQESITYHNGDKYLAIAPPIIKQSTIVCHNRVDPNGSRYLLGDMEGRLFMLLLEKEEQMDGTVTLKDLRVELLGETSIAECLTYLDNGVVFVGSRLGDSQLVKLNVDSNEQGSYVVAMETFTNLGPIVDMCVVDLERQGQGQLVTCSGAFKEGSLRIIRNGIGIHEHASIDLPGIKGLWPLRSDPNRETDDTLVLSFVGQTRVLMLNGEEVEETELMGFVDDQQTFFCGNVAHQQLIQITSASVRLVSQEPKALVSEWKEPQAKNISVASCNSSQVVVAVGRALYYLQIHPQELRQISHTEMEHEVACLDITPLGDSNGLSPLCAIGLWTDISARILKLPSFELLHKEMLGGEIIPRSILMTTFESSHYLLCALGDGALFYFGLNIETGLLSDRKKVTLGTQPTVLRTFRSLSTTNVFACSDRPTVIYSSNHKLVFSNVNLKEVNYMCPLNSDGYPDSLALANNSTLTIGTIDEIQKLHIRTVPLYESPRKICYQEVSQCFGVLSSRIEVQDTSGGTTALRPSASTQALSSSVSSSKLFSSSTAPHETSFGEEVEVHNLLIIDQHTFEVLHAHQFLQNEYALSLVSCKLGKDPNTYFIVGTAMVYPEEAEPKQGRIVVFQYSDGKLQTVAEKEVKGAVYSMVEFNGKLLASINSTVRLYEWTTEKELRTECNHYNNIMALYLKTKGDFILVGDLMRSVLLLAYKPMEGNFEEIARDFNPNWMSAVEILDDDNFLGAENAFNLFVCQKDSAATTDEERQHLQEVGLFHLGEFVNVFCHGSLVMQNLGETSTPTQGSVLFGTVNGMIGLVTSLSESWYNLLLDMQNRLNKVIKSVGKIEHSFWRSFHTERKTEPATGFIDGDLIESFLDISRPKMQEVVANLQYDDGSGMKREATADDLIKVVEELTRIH
# measurement_description: Compound binding to CRBN by HTRF assay
# particulars: HTRF class; Cereblon binding
# reported EC50; entries follow

// below: answered molecules
                                   molecule    result_value
0  O=C1CC(C(=O)NCc2cc(Cl)c(C3CCC(=O)NC3=O)c(Cl)c2)(c2ccc(F)cc2)C1 (stereo not shown)        ≤ 100 nM
1  Cc1cc(C(C)(C)C(=O)NCc2cc(Cl)c(C3CCC(=O)NC3=O)c(Cl)c2)ncn1 (stereo not shown)  100 to 1000 nM
2  Cc1cnc(C(C)(C)C(=O)NCc2cc(Cl)c([C@H]3CCC(=O)NC3=O)c(Cl)c2)nc1 (single isomer, unassigned)       > 1000 nM
3  CC1(C(=O)NCc2cc(Cl)c(C3CCC(=O)NC3=O)c(Cl)c2)COc2ccccc2C1 (stereo not shown)        ≤ 100 nM
4  O=C1CCC(c2c(Cl)cc(CNC(=O)C3(c4ccc(F)cc4)CCOCC3)cc2Cl)C(=O)N1 (stereo not shown)        ≤ 100 nM

Prompt: Output measured EC50 for this item: CC(C)(C(=O)NCc1ccc(C2CCC(=O)NC2=O)c(Cl)c1)c1ccc(S(N)(=O)=O)cc1 (stereo not shown)
Completion: 100 to 1000 nM

Prompt: Look up EC50 of CC(C)(C(=O)NCc1cc(Cl)c(C2CCC(=O)NC2=O)c(Cl)c1)c1ccnc(F)c1 (stereo not shown) and report it.
Completion: ≤ 100 nM

###

# study_target: NEK7 (Homo sapiens (Human), UniProt Q8TDX7+Q96SW2)
# measurement_description: NEK7 NanoBiT degradation assay in Cal51 NEK7 NanoBiT cell line
# Format: cell-based
# particulars: CAL-51; NEK7 degradation, Cal51 NEK7 NanoBiT cells, 24 hours; read-out: NanoBiT Dmax
quantity_measured: Dmax

In [3]: df
Out[3]:
                                   compound  quantity_measured  result_value
0  CC(C)(C(=O)NCc1cc(Cl)c(C2CCC(=O)NC2=O)c(Cl)c1)c1ccnc2ccccc12 (stereo not shown)               Dmax     50 to 75%
1  CC(C)(C(=O)NCc1ccc(C2CCC(=O)NC2=O)c(Cl)c1)c1cccc(C(F)(F)F)n1 (stereo not shown)               Dmax         > 75%
2  CC(C)(C(=O)NCc1cc(Cl)c(C2CCC(=O)NC2=O)c(Cl)c1)c1ncc(N2CCC2)cn1 (stereo not shown)               Dmax     50 to 75%
3  CC(C)(C(=O)NCc1cc(Cl)c(C2CCC(=O)NC2=O)c(Cl)c1)c1ncc(C(F)F)cn1 (stereo not shown)               Dmax         > 75%

Prompt: Would you please give the reported Dmax of CC(C)(C(=O)NCc1cc(Cl)c(C2CCC(=O)NC2=O)c(Cl)c1)c1ncco1 (stereo not shown) with NEK7 (Homo sapiens (Human), UniProt Q8TDX7+Q96SW2)?
Completion: 50 to 75%

Prompt: Specify the recorded Dmax for Cn1ncc(C(C)(C)C(=O)NCc2cc(Cl)c(C3CCC(=O)NC3=O)c(Cl)c2)cc1=O (stereo not shown) , system: NEK7 (Homo sapiens (Human), UniProt Q8TDX7+Q96SW2).
Completion: > 75%

Prompt: # assay system NEK7 (Homo sapiens (Human), UniProt Q8TDX7+Q96SW2): give Dmax of CC(C)(C(=O)NCc1cc(Cl)c(C2CCC(=O)NC2=O)c(Cl)c1)c1ccc(C(F)F)cn1 (stereo not shown)
Completion: > 75%

Prompt: Fill: Dmax (NEK7 (Homo sapiens (Human), UniProt Q8TDX7+Q96SW2)) for this compound CC(C)(C(=O)NCc1cc(Cl)c(C2CCC(=O)NC2=O)c(Cl)c1)c1cnc(OC(F)(F)F)cn1 (stereo not shown)
Completion: > 75%

Prompt: GET Dmax where system = NEK7 (Homo sapiens (Human), UniProt Q8TDX7+Q96SW2) and item = CC(C)(C(=O)NCc1cc(Cl)c(C2CCC(=O)NC2=O)c(Cl)c1)c1cc(F)ccn1 (stereo not shown)
Completion: > 75%

Prompt: # return Dmax for CC(C)(C(=O)NCc1cc(Cl)c(C2CCC(=O)NC2=O)c(Cl)c1)c1ccc(C(F)F)nn1 (stereo not shown) , test system: NEK7 (Homo sapiens (Human), UniProt Q8TDX7+Q96SW2)
Completion: > 75%

Prompt: Find Dmax for CC(C)(C(=O)NCc1cc(Cl)c(C2CCC(=O)NC2=O)c(Cl)c1)c1ccc2[nH]ncc2c1 (stereo not shown) on NEK7 (Homo sapiens (Human), UniProt Q8TDX7+Q96SW2) and write it down.
Completion: > 75%

Prompt: Given CC(C)(C(=O)NCc1cc(Cl)c(C2CCC(=O)NC2=O)c(Cl)c1)c1cc2ocnc2cn1 (stereo not shown) , report its Dmax on NEK7 (Homo sapiens (Human), UniProt Q8TDX7+Q96SW2).
Completion: > 75%

Prompt: Fetch value of Dmax on NEK7 (Homo sapiens (Human), UniProt Q8TDX7+Q96SW2) for COCc1ccc(C(C)(C)C(=O)NCc2cc(Cl)c(C3CCC(=O)NC3=O)c(Cl)c2)nn1 (stereo not shown) .
Completion: > 75%

Prompt: Write down measured Dmax (NEK7 (Homo sapiens (Human), UniProt Q8TDX7+Q96SW2)) for this compound. Cn1ccc(C2(C(=O)NCc3cc(Cl)c(C4CCC(=O)NC4=O)c(Cl)c3)CCC2)cc1=O (stereo not shown)
Completion: > 75%

Prompt: System NEK7 (Homo sapiens (Human), UniProt Q8TDX7+Q96SW2). Read-out Dmax. Item CC(C)(C(=O)NCc1cc(Cl)c(C2CCC(=O)NC2=O)c(Cl)c1)C1CCCCC1 (stereo not shown) . Report value.
Completion: > 75%

Prompt: Lab note: NEK7 (Homo sapiens (Human), UniProt Q8TDX7+Q96SW2) assay, enter Dmax for CC(C)(C(=O)NCc1cc(Cl)c(C2CCC(=O)NC2=O)c(Cl)c1)c1cc(F)[nH]c(=O)c1 (stereo not shown) here
Completion: > 75%
